- system: serotonin (5-HT) transporter (Rattus norvegicus, UniProt P31652)
- Construct: from tissue; host or cells: rat frontal cortex
- Sequence (P31652 whole entry): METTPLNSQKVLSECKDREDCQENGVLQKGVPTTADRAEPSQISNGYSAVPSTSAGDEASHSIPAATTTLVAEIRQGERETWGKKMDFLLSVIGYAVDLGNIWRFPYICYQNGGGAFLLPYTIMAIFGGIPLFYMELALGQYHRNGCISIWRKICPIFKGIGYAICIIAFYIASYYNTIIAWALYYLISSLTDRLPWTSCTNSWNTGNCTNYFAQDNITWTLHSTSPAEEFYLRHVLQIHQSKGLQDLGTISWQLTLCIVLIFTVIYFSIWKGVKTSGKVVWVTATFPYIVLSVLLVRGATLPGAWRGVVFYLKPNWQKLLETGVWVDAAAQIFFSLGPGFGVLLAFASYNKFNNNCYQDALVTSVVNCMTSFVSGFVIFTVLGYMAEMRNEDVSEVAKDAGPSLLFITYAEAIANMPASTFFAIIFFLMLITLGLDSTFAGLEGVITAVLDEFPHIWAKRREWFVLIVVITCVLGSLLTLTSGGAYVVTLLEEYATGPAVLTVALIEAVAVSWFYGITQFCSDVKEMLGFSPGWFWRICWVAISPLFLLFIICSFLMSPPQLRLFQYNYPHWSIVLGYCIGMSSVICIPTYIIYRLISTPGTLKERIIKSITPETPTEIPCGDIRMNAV
- experiment: displacement of [3H]paroxetine binding to 5-HT transporter
- experimental.context: selectivity for 5-HT over DA transporter
Mark not satisfied for 5-HT/DA potency ratio values under 6, and satisfied for everything at or above.

Query block: Confirm if 5-HT/DA potency ratio reported for the compound `C/C=C/c1ccc([C@H]2C[C@@H]3CC[C@H]([C@H]2C(=O)CC)N3C)cc1` is 6 or above.
Result block: not satisfied

* * *

- system: serotonin (5-HT) transporter (Rattus norvegicus, UniProt P31652)
- Construct: from tissue; host or cells: rat frontal cortex
- experiment: displacement of [3H]paroxetine binding to 5-HT transporter
measured.metric: pKi
Conceptually, pKi converts a concentration in mol/L into minus its log10.

The following molecules have reported results that may help.
Query block: Identify the reported pKi for the following entry. CC=Cc1ccc(C2CC3CCC(N3)C2C(=O)CC)cc1 (stereo not shown)
Result block: 9.63

Query block: Check the records and state pKi for CCC(=O)[C@H]1[C@@H](c2ccc(/C=C/I)cc2)C[C@@H]2CC[C@H]1N2 (relative stereo)
Result block: 9.21

Query block: Note pKi for the molecule shown: C=C(CC)c1ccc(C2CC3CCC(N3)C2C(=O)CC)cc1 (stereo not shown)
Result block: 9.71

Others:
Query block: Please give measured pKi of the following entry: CCC(=O)[C@H]1[C@@H](c2ccc(C=C(C)C)cc2)C[C@@H]2CC[C@H]1N2 (relative stereo)
Result block: 9.39

Query block: Name the recorded pKi of the molecule listed here: CCC(=O)[C@H]1[C@@H](c2ccc(/C=C(\C)I)cc2)C[C@@H]2CC[C@H]1N2 (relative stereo)
Result block: 9.25

Query block: Please give measured pKi of the following entry: C=C(C)c1ccc([C@H]2C[C@@H]3CC[C@@H](N3)[C@H]2C(=O)CC)cc1 (relative stereo)
Result block: 9.96

Query block: Look up pKi of CCC(=O)[C@H]1[C@@H](c2ccc(/C=C(/C)I)cc2)C[C@@H]2CC[C@H]1N2 (relative stereo) and report it.
Result block: 9.88

Query block: # return recorded pKi for entry `C=C(CC)c1ccc([C@H]2C[C@@H]3CC[C@H]([C@H]2C(=O)CC)N3C)cc1`
Result block: 8.95

Query block: Determine its reported pKi: `C/C=C/c1ccc([C@H]2C[C@@H]3CC[C@H]([C@H]2C(=O)CC)N3C)cc1`
Result block: 8.93

Query block: Supply reported pKi belonging to this molecule: C=C(C)c1ccc([C@H]2C[C@@H]3CC[C@H]([C@H]2C(=O)CC)N3C)cc1 (relative stereo)
Result block: 9.09

* * *

- system: serotonin (5-HT) transporter (Rattus norvegicus)
- Construct: from tissue; host or cells: rat frontal cortex
- experiment: displacement of [3H]paroxetine binding to 5-HT transporter
- experimental.context: selectivity for 5-HT over DA transporter
Field: label. Allowed values: class 1 (5-HT/DA potency ratio < 200) or class 0 (5-HT/DA potency ratio >= 200).

Known results for molecules:
Query block: A record lists CCC(=O)[C@H]1[C@@H](c2ccc(/C=C(\C)I)cc2)C[C@@H]2CC[C@H]1N2 (relative stereo) [Example 12] . Is its 5-HT/DA potency ratio below 200?
Result block: class 0

Query block: Confirm or reject: 5-HT/DA potency ratio of CC=Cc1ccc(C2CC3CCC(N3)C2C(=O)CC)cc1 (centres unmarked) [Example 10] lies strictly below 200
Result block: class 1

Query block: Identify whether the molecule CCC(=O)[C@H]1[C@@H](c2ccc(C=C(C)C)cc2)C[C@@H]2CC[C@H]1N2C (relative stereo) [Example 5] records 5-HT/DA potency ratio below 200.
Result block: class 1

Next:
Query block: I'd appreciate it if you could check whether CCC(=O)[C@H]1[C@@H](c2ccc(C=C(C)C)cc2)C[C@@H]2CC[C@H]1N2 (relative stereo) [Example 6] has 5-HT/DA potency ratio smaller than 200.
Result block: class 0
